Data export: pIC50 values recorded with acetylcholinesterase (Rattus norvegicus, UniProt P37136).
Sequence (P37136 32-614): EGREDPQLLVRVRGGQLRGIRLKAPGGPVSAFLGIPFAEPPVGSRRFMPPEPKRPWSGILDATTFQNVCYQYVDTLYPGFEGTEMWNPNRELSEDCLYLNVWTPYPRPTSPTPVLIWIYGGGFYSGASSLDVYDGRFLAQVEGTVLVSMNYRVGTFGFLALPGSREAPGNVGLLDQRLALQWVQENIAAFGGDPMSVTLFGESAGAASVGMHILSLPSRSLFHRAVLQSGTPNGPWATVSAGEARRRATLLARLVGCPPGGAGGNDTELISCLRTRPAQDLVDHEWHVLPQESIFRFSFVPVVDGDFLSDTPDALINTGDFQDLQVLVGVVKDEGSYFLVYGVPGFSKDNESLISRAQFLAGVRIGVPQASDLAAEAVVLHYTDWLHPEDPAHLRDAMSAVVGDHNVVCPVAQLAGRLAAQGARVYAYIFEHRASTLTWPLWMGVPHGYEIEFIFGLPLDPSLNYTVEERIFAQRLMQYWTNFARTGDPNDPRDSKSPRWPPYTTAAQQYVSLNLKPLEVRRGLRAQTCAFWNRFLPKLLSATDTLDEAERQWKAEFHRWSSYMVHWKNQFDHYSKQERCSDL
pIC50: −log10 of the molar value.

Compound: O=C(CCC1CCN(Cc2ccccc2)CC1)c1ccc(Nc2ncnc3c2CCCC3)cc1
Qualifier: =
pIC50: 8.96

Compound: N#Cc1ccc(Nc2ncnc3c2CCC3)cc1 [Compound B, reference compound]
Qualifier: <
pIC50: 5.00

Compound: O=C(CC1CCN(Cc2ccccc2)CC1)c1ccc(Nc2ncnc3c2CCC3)cc1
Qualifier: =
pIC50: 6.82

Compound: Cc1cncnc1Nc1ccc(C(=O)CC2CCN(Cc3ccccc3)CC2)cc1
Qualifier: =
pIC50: 6.60

Compound: O=C(CCC1CCN(Cc2ccccn2)CC1)c1ccc(Nc2ncnc3c2CCC3)cc1
Qualifier: =
pIC50: 7.77

Compound: CCc1cncnc1Nc1ccc(C(=O)CC2CCN(Cc3ccccc3)CC2)cc1
Qualifier: =
pIC50: 6.70

Compound: Cc1ncnc(Nc2ccc(C(=O)/C=C/C3CCN(Cc4ccccc4)CC3)cc2)c1C
Qualifier: =
pIC50: 8.48

Compound: O=C(CC1CCN(Cc2cccs2)CC1)c1ccc(Nc2ncnc3c2CCC3)cc1
Qualifier: =
pIC50: 6.57

Compound: O=C(/C=C/C1CCN(Cc2ccccc2)CC1)c1ccc(Nc2ncnc3c2CCCC3)cc1
Qualifier: =
pIC50: 8.85

Compound: O=C1c2ccc(Nc3ncnc4c3CCC4)cc2CC1CC1CCN(Cc2ccccc2)CC1 (stereo not drawn)
Qualifier: =
pIC50: 8.14

Compound: O=C(CCC1CCN(Cc2ccccc2)CC1)c1ccc(Nc2ncnc3c2CCC3)cc1
Qualifier: =
pIC50: 8.70

Compound: O=C(/C=C/C1CCN(Cc2ccccc2)CC1)c1ccc(Nc2ncnc3c2CCC3)cc1
Qualifier: =
pIC50: 8.51

Compound: Cc1ncnc(Nc2ccc(C(=O)CCC3CCN(Cc4ccccc4)CC3)cc2)c1C
Qualifier: =
pIC50: 8.44

Compound: O=C1C(=CC2CCN(Cc3ccccc3)CC2)Cc2cc(Nc3ncnc4c3CCC4)ccc21
Qualifier: =
pIC50: 7.70

Compound: Cc1cncnc1Nc1ccc(C(=O)CC2CCN(Cc3cccs3)CC2)cc1
Qualifier: =
pIC50: 6.48

* * *

Below are compounds with their IC50 as measured on A type monoamine oxidase (Rattus norvegicus).
Sequence (P21396 whole entry): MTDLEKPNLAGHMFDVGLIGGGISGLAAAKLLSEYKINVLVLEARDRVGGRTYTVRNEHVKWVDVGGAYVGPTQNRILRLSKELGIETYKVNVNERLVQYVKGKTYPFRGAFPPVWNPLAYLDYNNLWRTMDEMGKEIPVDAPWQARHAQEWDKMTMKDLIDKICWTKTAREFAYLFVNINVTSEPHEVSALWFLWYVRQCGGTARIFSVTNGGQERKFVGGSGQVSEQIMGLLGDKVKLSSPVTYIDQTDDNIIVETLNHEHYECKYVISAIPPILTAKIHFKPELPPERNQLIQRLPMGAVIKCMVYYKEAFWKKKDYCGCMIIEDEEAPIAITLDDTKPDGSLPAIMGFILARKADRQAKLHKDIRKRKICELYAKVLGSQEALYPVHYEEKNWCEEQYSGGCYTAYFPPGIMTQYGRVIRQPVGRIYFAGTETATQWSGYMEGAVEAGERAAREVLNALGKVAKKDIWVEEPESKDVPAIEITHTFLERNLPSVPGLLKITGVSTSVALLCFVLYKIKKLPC

Compound: O=C(/C=C/C1CCN(Cc2ccccc2)CC1)c1ccc(Nc2ncnc3c2CCCC3)cc1
IC50 (nM): 1400

Compound: Cc1cncnc1Nc1ccc(C(=O)CC2CCN(Cc3ccccc3)CC2)cc1
IC50 (nM): 340

Compound: O=C(/C=C/C1CCN(Cc2ccccc2)CC1)c1ccc(Nc2ncnc3c2CCC3)cc1
IC50 (nM): 220

Compound: O=C(CCC1CCN(Cc2ccccn2)CC1)c1ccc(Nc2ncnc3c2CCC3)cc1
IC50 (nM): 85

Compound: N#Cc1ccc(Nc2ncnc3c2CCC3)cc1 [Compound B, reference compound]
IC50 (nM): 160

Compound: O=C(CCC1CCN(Cc2ccccc2)CC1)c1ccc(Nc2ncnc3c2CCCC3)cc1
IC50 (nM): 320

Compound: Cc1ncnc(Nc2ccc(C(=O)/C=C/C3CCN(Cc4ccccc4)CC3)cc2)c1C
IC50 (nM): 1600

Compound: O=C1c2ccc(Nc3ncnc4c3CCC4)cc2CC1CC1CCN(Cc2ccccc2)CC1 (centres unmarked)
IC50 (nM): 810
